// provenance: patent US20250263468A1

target: SARS-CoV-2 virus surface protein (RBD), wild type (SARS-CoV-2, UniProt P0DTC2 319-536); assay: BLI (Octet), full IgG against SARS-CoV-2 RBD
MEASUREMENT_NAME: pKd
Bear in mind: pKd is minus log10 of a mol/L concentration; give just that figure.

[in] Report measured pKd; entry is antibody No. 48 (fully human antibody, full IgG) (antibody, V domains shown) VH: EVQLVQSGGGLIQPGGSLRLSCAASGFTVSSNYMSWVRQPPGKGLEWVSVIYPGGSTFFADSVQGRFTISRDNSKNTLYLQMNSLRAEDTAVYYCARSYDFLTDYTDAFDIWGQGTMVTVSS VL: ELELTQPPSVSGAPGQRVTISCTGSSSNIGAGYDVHWYQQLPGTAPKLLIYGNSNRPSGVPDRFSGSKSGTSASLAITGLQAEDEADYYCQSYDSSLSGLWVFGGGTKLTVQ
[out] 9.74

[in] Give the reported pKd for this binder. antibody No. 33 (fully human antibody, full IgG) (antibody, V domains shown) VH: EVQLVESGGGVVQPGRSLRLSCAASGLTFSDYGMHWVRQAPGKGLEWVAAISYDGSNKYYADSVKGRFTISRDNSKNTVYLQMNSLRAEDTAVYYCVRDSGLYGSGWSTYQYYAMDVWGQGTTVTVSS VL: ELVLTQSPSVSVAPGKTARITCGGNNIGSKSVHWYQQKPGQAPVLVVYDDSDRPSGIPERFSGSNSGNTATLTISRVEAGDEADYYCQVWDSSSDHVVFGGGTKVTVL
[out] 10.37

[in] Return reported pKd. Input binder: antibody No. 54 (fully human antibody, full IgG) (antibody, V domains shown) VH: EVQLLESGGGLVQPGRSLRLSCAASGFNFDDYAMHWVRQAPGKGLEWVSGISWNSGTIGYADSVKGRFIISRDNAKNSLYLQMRSLKPEDTALYYCAKEELGPYSNRWYSSSDGMDVWGQGTTVTVSS VL: ELVLTQPPSVSGAPGQRVTISCTGSSSNIGAGYDVHWYQQLPGTAPKLLIYGNSNRPSGVPDRFSGSKSGTSASLAITGLQAEDEADYYCQSYDSSLSGVVFGGGTKLTVL
[out] 10.50

[in] Consider the binder antibody No. 45 (fully human antibody, full IgG) (antibody, V domains shown) VH: EVQLVQSGAEVKKPGSSVKVSCKASGGTFSSYDISWVRQAPGQGLEWMGGIIPILGIPNYAQKFQGRVTITADESTSTAYMELSSLRSEDTAVYYCARSRGYSGYGANWYFDLWGRGTLVTVSS VL: ELVVTQPPSVSGAPGQRVTISCTGSSSNIGAGYDVHWYQQLPGTAPKLLIYGNSNRPSGVPDRFSGSKSGTSASLAITGLQAEDEAEYYCQSYDSSLSGPVFGGGTKLTVL and give its recorded pKd.
[out] 10.15

[in] Tell me its pKd given antibody No. 59 (fully human antibody, full IgG) (antibody, V domains shown) VH: QVQLQESGPGLVKPSETLSLTCTVSGDSISGSSYYWGWIRQPPGKGLEWIGNIFYSGSTYYNPSLKSRVTISVDTPKNQFSLKLSSVTAADTAMYYCARGSRGYYDILTGYSTGGFDYWGQGTLVTVSS VL: ELQMTQSPATLSVSPGEGATLSCRASQSVSSNLAWYQHKPGQAPRLLIYDASTRATGIPARFSGSGSGTEFTLTISSLQSEDFAVYYCQQYNNWPLTFGGGTKLEIK as the entry.
[out] 10.30

[in] Annotate the binder antibody No. 61 (fully human antibody, full IgG) (antibody, V domains shown) VH: EVQLLESGGALVQPGRSLRLSCAASGFTFDDYAMHWVRQGPGKGLEWVSGTTWNSGTIGYADSVKGRFIISRDNAENSLYLQMNSLRPEDTALYYCAKDIGSGDRPDAFHLWGQGTMVTVSS VL: ELVLTQPPSVSVAPGKTARITCGGNNIGSKSVHWYQQKPGQAPVLVVYDDSDRPSGIPERFSGSNSGNTATLTISRVEAGDEADYYCQVWDSSSDRVVFGGGTKVTVL with its measured pKd.
[out] 10.65
